# System: Barnyard grass (Echinochloa crusgalli L.)
# assay-text: Herbicidal activity, foliar spraying (spectrum and SAR study)
# Type: in vivo
# test-context: Echinochloa crus-galli, 72 h, read-out: Efficacy of phytotoxic activity; SAR study; one pot of barnyard grass; foliar spray 3 mL of 5 mg/mL; at least 3 days after spraying
readout-name: pest or weed control at 5000 µg/mL

[[record]]
compound = "CCCCC/C=C\\C=C\\C(=O)N1CCCC1"
target_or_test_system = "Barnyard grass (Echinochloa crusgalli L.)"
measured = "80 to 100%"

[[record]]
compound = "O=C(/C=C/c1ccccc1)NC1CCCC1 [No 7, N-Cyclopentylcinnamamide]"
target_or_test_system = "Barnyard grass (Echinochloa crusgalli L.)"
measured = "< 20%"

[[record]]
compound = "CCCCCCCCCC(=O)NC1CCCC1 [No 4, N-Cyclopentyldecanamide]"
target_or_test_system = "Barnyard grass (Echinochloa crusgalli L.)"
measured = "< 20%"

[[record]]
compound = "O=C(/C=C/c1ccccc1)N1CCCCC1 [No 15, N-(trans-Cinnamoyl)piperidine]"
target_or_test_system = "Barnyard grass (Echinochloa crusgalli L.)"
measured = "40 to 60%"

[[record]]
compound = "CCCCC/C=C\\C=C\\C(=O)N1CCCCCC1"
target_or_test_system = "Barnyard grass (Echinochloa crusgalli L.)"
measured = "80 to 100%"

[[record]]
compound = "CCCCCCC/C=C/C(=O)N1CCCCCC1"
target_or_test_system = "Barnyard grass (Echinochloa crusgalli L.)"
measured = "80 to 100%"

[[record]]
compound = "CCCCC/C=C\\C=C\\C(=O)N1CCCCC1"
target_or_test_system = "Barnyard grass (Echinochloa crusgalli L.)"
measured = "80 to 100%"

[[record]]
compound = "CCCCCCC/C=C/C(=O)O"
target_or_test_system = "Barnyard grass (Echinochloa crusgalli L.)"
measured = "80 to 100%"

[[record]]
compound = "CCCCC/C=C\\C=C\\C(=O)NC1CCCC1 [No 6, N-Cyclopentyl 2E,4Z-decadienamide]"
target_or_test_system = "Barnyard grass (Echinochloa crusgalli L.)"
measured = "< 20%"

[[record]]
compound = "CCCCCCC/C=C/C(=O)N1CCCCC1"
target_or_test_system = "Barnyard grass (Echinochloa crusgalli L.)"
measured = "80 to 100%"


---

# System: Barnyard grass (Echinochloa crusgalli L.)
# assay-text: Herbicidal activity, foliar spraying (spectrum and SAR study)
# Type: in vivo
# test-context: SAR study; barnyard grass; foliar spray 3 mL of 5 mg/mL
# Experimental: All weed, sedge and crop seedlings were planted in 8 cm×8 cm×7.2 cm or 10 cm×10 cm×9 cm plastic pots. […] Herbicidal activity of the active compound and synthesized compounds was evaluated by foliar spraying. […] Freshly made solution with the evaluated compound at a concentration of 5 mg/mL was used. […]
readout-name: Phytotoxic activity relative to sarmentine / toxicity to barnyard grass (in words)

[[record]]
compound = "O=C(O)/C=C/c1ccccc1 [No 20, trans-cinnamic acid, reference compound]"
target_or_test_system = "Barnyard grass (Echinochloa crusgalli L.)"
measured = "very active"

[[record]]
compound = "CCCCCCCCCC(=O)O"
target_or_test_system = "Barnyard grass (Echinochloa crusgalli L.)"
measured = "very active"

[[record]]
compound = "C1CCCNCC1 [No 26, hexamethyleneimine, reference compound]"
target_or_test_system = "Barnyard grass (Echinochloa crusgalli L.)"
measured = "non toxic"

[[record]]
compound = "NC1CCCC1 [No 23, cyclopentylamine, reference compound]"
target_or_test_system = "Barnyard grass (Echinochloa crusgalli L.)"
measured = "non toxic"

